Give measured composite z-score for each item. Keep answers brief.
Assay: small-molecule microarray binders of probe aNog, primary screen, biochemical, biotinylated probe, 635/667 nm fluorescence (AID 1115);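 note: probe is biotinylated aNog protein used at 0.15 µg/mL for 1 h at 4 C; z-score combines 667 nm fluorescence of each spot with its signal to noise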
Details: higher = more signal
Give bare numbers.

# batch: return composite z-score for each of the 2 molecules below
1. C=CCNC(=O)[C@@H]1[C@H]2C(=O)O[C@H](c3ccccc3)[C@H](c3ccccc3)N2[C@H](c2ccc(OCCO)cc2)[C@@]12C(=O)Nc1ccc(C#CCCO)cc12
2. O=C1[C@H]2C=C(Br)[C@H](C[C@@H]2OCCCCO)[C@@]12CO2

1. 2.4
2. 0.101

Batch request: composite z-score per item, same order as input.
1. NCCCCCNC(=O)[C@@H]1C[C@@H]2C(=O)NCC(=O)N2[C@@H]1c1ccc(O)cc1
2. C=C(C)C1C(=C)CN([C@H](CO)c2ccccc2)C1=O (stereo partly drawn)
3. CC(C)OC(=O)C=C1C[C@@H](c2ccccc2C(F)(F)F)O[C@@H](c2ccccc2C(F)(F)F)O1
4. Cc1ccc(S[C@]2(C(=O)NCCN3CCOCC3)CC(=O)N(Cc3ccccc3Cl)[C@@H]2c2ccc(CO)cc2)cc1
5. COc1ccc(C(O)C2C=CC3C(=O)NC(=O)C3N2Nc2ccccn2)cc1 (stereo not drawn)
6. CN(C)CCCCCCNC(=O)[C@@H]1C[C@@H]2C(=O)N[C@@H](CCCCN)C(=O)N2[C@@H]1c1cccc(OCCO)c1

-0.036
-0.229
0.0234
-0.339
0.0861
3.42

I would be grateful if you could provide composite z-score for each of the following entries.
1. CCOC(=O)C[C@H]1[C@H](OC(=O)c2cc3ccccc3oc2=O)[C@@H](NC(=O)Cc2ccc(OC)cc2)c2cc(OCCCO)ccc2N1C(=O)c1ccccc1
2. CCOC(=O)C1=CCC(c2ccccc2)N(S(=O)(=O)CC[Si](C)(C)C)C1 (stereo not drawn)
3. CC(C)(C)OC(=O)CC[C@]1(C(=O)O)N=C(c2ccc(OCCCO)cc2)O[C@H]1c1ccccc1N=[N+]=[N-]
4. CN(C)C(=O)[C@]1(Cc2ccccc2CN=[N+]=[N-])N=C(c2ccc(OCCCO)cc2)O[C@@H]1c1ccccc1CN=[N+]=[N-]
5. C=CCOC(=O)[C@@H]1[C@H]2C(=O)O[C@H](c3ccccc3)[C@H](c3ccccc3)N2[C@H](c2ccc(OCCOC(=O)[C@@H]3C[C@@H]4C(=O)N[C@@H](Cc5ccccc5)C(=O)N4[C@@H]3c3ccc(O)cc3)cc2)[C@@]12C(=O)Nc1ccc(I)cc12
6. COCCOC(=O)N1C(=O)[C@@]2(c3cc(C#CCCO)ccc31)[C@H](C(=O)Nc1nc3ccccc3s1)[C@H]1C(=O)O[C@H](c3ccccc3)[C@H](c3ccccc3)N1[C@@H]2c1ccc(OCCO)cc1

1: 1.75; 2: -0.338; 3: 2.34; 4: 0.76; 5: -0.0784; 6: -0.22

Record composite z-score for all entries; do not skip any.
1. CCCC=C(CCC)[C@@H](NC(=O)Oc1ccc(F)cc1)c1ccc(C(=O)OC)cc1
2. C=CCC(OC(C)=O)[C@@H]1[C@@H](N(Cc2ccc(-c3ccccc3)cc2)C(=O)Cc2ccc(F)cc2)c2cc(OCCCO)ccc2N1C(=O)c1ccc(-c2ccccc2)cc1 (stereo partly drawn)
3. COCC(=C=CC[C@@H](O)c1ccccc1OCCO)C[C@@H](O)c1cc(Cl)cc(Cl)c1O

[0.83, -0.143, -0.0863]

Answer for every listed entry: what is its composite z-score? The entries follow.
1. Cc1ccc(C(C)CC(O)C2C=CC3C(=O)N(c4ccccc4)C(=O)C3N2Nc2ccc([N+](=O)[O-])cc2)o1 (stereo not drawn)
2. O=C(NCc1ccc(F)cc1)[C@H]1C[C@H]2C(=O)N[C@@H](Cc3ccccc3)C(=O)N2[C@H]1c1ccc(O)cc1
3. CN1C(=O)C2C=CC(C(O)c3cccs3)N(Nc3ccccc3)C2C1=O (stereo not drawn)

1: 0.437; 2: -0.235; 3: 0.0924

Batch of 5 molecules: report composite z-score for each.
1. COCCOC(=O)N1C(=O)[C@@]2(c3cc(C#CCNC(N)=O)ccc31)[C@H](C(=O)NC[C@H](O)c1ccccc1)[C@H]1C(=O)O[C@H](c3ccccc3)[C@H](c3ccccc3)N1[C@@H]2c1ccccc1OCCO
2. C=CC[C@@]1(C(N)=O)N=C(c2ccc(OCCCO)cc2)O[C@@H]1c1ccccc1CN=[N+]=[N-]
3. C=CCN1C(=O)[C@]2(O[C@H](CCO)[C@@H]([Si](C)(C)c3ccc(OC)cc3)[C@@H]2C)c2cc(N3CCCCC3=O)ccc21
4. COc1ccc(C#Cc2ccc3c(c2)[C@]2(C(=O)N3)[C@H](c3ccccc3OCCO)N3[C@H](c4ccccc4)[C@H](c4ccccc4)OC(=O)[C@H]3[C@@H]2C(=O)O)cc1
5. COC(=O)[C@@]1(Cc2ccc(OC)cc2)[C@H]2c3cc(C(=O)N(C)C)n(Cc4cccc5ccccc45)c3C[C@H]2CN1C(=O)c1ccccc1

1.32
0.661
0.431
1.52
2.12

Would you mind giving composite z-score for every molecule in the list below?
1. CN(C)CCCC[C@@H]1NC(=O)[C@H]2C[C@@H](C(=O)NCCCCCNC(=O)CS)[C@@H](c3cccc(OCCO)c3)N2C1=O
2. COC(=O)C(CC#Cc1ccc2c(c1)[C@]1(C(=O)N2)[C@H](c2ccc(O)cc2)N2[C@H](c3ccccc3)[C@H](c3ccccc3)OC(=O)[C@H]2[C@@H]1C(=O)Nc1nc2ccccc2s1)C(=O)OC
3. COC(=O)[C@@]1(Cc2ccccc2)[C@H]2c3cc(C(=O)N4CCCC4)n(Cc4cccc5ccccc45)c3C[C@H]2CN1C(=O)c1ccccc1

[-0.363, 0.535, 0.714]
